Compiled notes: published IC50 values involving Cholesteryl ester transfer protein (Homo sapiens, UniProt P11597).
State the answer as a number, implicitly in nM.

Look up and report measured IC50 (Cholesteryl ester transfer protein (Homo sapiens, UniProt P11597)) for the following compound: CC(=O)N(Cc1cc(C(F)(F)F)cc(C(F)(F)F)c1)C1CCCN(C(=O)OC(C)C)c2c1ccc1c2CCC1 (racemic) 54

Param request: IC50 | system Cholesteryl ester transfer protein (Homo sapiens, UniProt P11597) | item COc1cc(F)c(C(C)C)cc1-c1ccc(-n2cccn2)nc1CN1C(=O)O[C@H](c2cc(C(F)(F)F)cc(C(F)(F)F)c2)[C@@H]1C 55.8

State IC50 on Cholesteryl ester transfer protein (Homo sapiens, UniProt P11597). Entry: CC(=O)N(Cc1cc(C(F)(F)F)cc(C(F)(F)F)c1)[C@H]1CCCN(C(=O)OC(C)C)c2cc(C(F)(F)F)c(C)cc21 68

Return reported IC50 for target or system Cholesteryl ester transfer protein (Homo sapiens, UniProt P11597), item O=C(Nc1ccc(Cl)c(Cl)c1)c1cc(C(F)(F)F)cc([N+](=O)[O-])c1N1CCCCC1 . 1450

Check Cholesteryl ester transfer protein (Homo sapiens, UniProt P11597) data and give IC50 for CC(=O)N(Cc1cc(C(F)(F)F)cc(C(F)(F)F)c1)C1CCCN(C(=O)OC(C)C)c2ccccc21 (stereo not shown) . 293

Provide IC50, system Cholesteryl ester transfer protein (Homo sapiens, UniProt P11597), entry CC(C)(C)c1ccc(CN(CCc2ccc(F)cc2)C(=O)c2cccc3c2NCC3)cc1 58

###

Several reports have described IC50 for UniProt P11597; a selection of those results is presented here.
Mark each entry fulfilled if its IC50 sits below 0.9 µM, and not fulfilled for all others.

I wonder whether CC(C)(C)c1ccc(CN(CCOc2ccc(F)cc2)C(=O)c2cccc3cc[nH]c23)cc1 has IC50 below 0.9 µM. Can you tell? fulfilled

I'd appreciate it if you could check whether CC(CO)[C@H]1CC[C@@H]2[C@H](C1)Oc1cc(CC(=O)OCc3ccccc3)oc(=O)c1[C@H]2O (mixture of isomers) has IC50 smaller than 0.9 µM. not fulfilled

In the record for COc1ccc(-c2ccc(C(=O)O)cc2C)cc1-c1cnc(N(C)C)nc1CN1C(=O)O[C@@H](c2cc(C(F)(F)F)cc(C(F)(F)F)c2)C12CC2 , is IC50 less than 0.9 µM? not fulfilled

Criterion: IC50 strictly below 0.9 µM. Is it met by CC(C)CCN(Cc1ccc(C(C)(C)C)cc1)C(=O)c1cccc2cc[nH]c12 ? fulfilled

Please state whether IC50 is below 0.9 µM for CC1CCN(c2c(Cl)cc(C(F)(F)F)cc2C(=O)Nc2ccc(Cl)c(Cl)c2)CC1 fulfilled

Report whether reported IC50 is lower than 0.9 µM (strictly) for CC(=O)N(Cc1cc(C(F)(F)F)cc(C(F)(F)F)c1)[C@H]1CCCN(C(=O)OC(C)(C)C)c2cc(C(F)(F)F)c(C)cc21 fulfilled
